Hello, the source for this data is patent US20090297535A1, in case you need it.

# TARGET_DESC: T1, recombinant human IL6 (human, UniProt P05231 30-212)
# T1 construct: Amine-coupled to a CM5 chip in the Biacore assay; used biotinylated in the Alphascreen assays; also called interleukin-6; biotinylated human IL6
# ASSAY_PROTOCOL: SPR, Biacore 3000; IL6 amine-coupled on CM5 chip, periplasmic extract injected
RECORDED_ENDPOINT: koff (s⁻¹)

Sample records with koff:
BINDER: PMP17C4 (VHH, Monovalent Nanobody) VHH: AVQLVDSGGGLVQAGDSLRLSCAASGRTFSNYAMAWFRQAPGKEREFVAVISYAGGRTYYADSVKGRFTISRDNAKNTVYLQMNSLKPEDTAVYYCAAVDSPLIATHPRGYDYWGQGTQVTVSS
koff, s⁻¹: 0.00137
//
BINDER: PMP21C2 (VHH, Monovalent Nanobody) VHH: QVQLVESGGGLVQPGGSLRLSCAASEYITSINPMAWYRQAPGKQRDLVARIFGGGSTNYADSVKGRFTISRDIAKNTVSLQMNSLKPEDTAVYYCNARRWGYDYWGQGTQVTVSS
koff, s⁻¹: 0.00116

(I) PMP17B11 (VHH) VHH: QVQLVESGGGLVQAGGSLRLSCAASGPTFSTYAMGWFRQAPGKEREFVAAISWSGANTYYADSVKGRFTISRDNAKNTVYLRMNSLKPEDTAAYYCAASAIIEGFQDSIVIFSEAGYDYWGQGTQVTVSS
(II) PMP14G1 (VHH, Monovalent Nanobody) VHH: QVKLEESGGGLVQAGGSLRLSCAASGGTFSAFPMGWFRQAPGKEREFVAGISQSGGSTHYSDSVKGRFTISKENAKNTVYLQMNSLKPEDTAVYYCAARGGTLALRNYAYTTEVGYDDWGQGTQVTVSS
(III) PMP14G4 (VHH, Monovalent Nanobody) VHH: AVQLVDSGGGLVQAGGSLRLSCAASGRTFSSYPMGWFRQGPGKERKFVAGISQSGVGTAYSDSVKGRFTISRENAKNTVYLQMNSLKPEDTAVYYCAARDKTLALRDYAYTTDVGYDDWGQGTQVTVSS
(IV) PMP14A8 (VHH, Monovalent Nanobody) VHH: EVQLVESGGGLVQAGGSLRLSCAASGGTFSSFPMGWFRQAPGKERKFVAGISQSGGSTHYSDSVKGRFTISRENAKNTVYLQMNNLKPEDTAVYYCAARGRTLALRNYAYTTEVGYDDWGQGTQVTVSS
Qu. // smallest koff at index 0, largest at the end Please respond by ranking the labels in the order requested.
Ans. IV, III, II, I
